# Tested On: human TLR8 (Homo sapiens (Human))
# Assay: TLR8 inhibition reporter assay (HEK-Blue SEAP)
# Assay Conditions: read-out: TLR8 IC50; HEK-Blue human TLR8 cells, R848 15.9 μM
pIC50: −log10 of the molar value.
Test Readout: pIC50

Consider the worked cases shown below.
>  <Compound>
Cc1c(-c2[nH]c3ccc(N4C[C@@H](C)N(CC(N)=O)[C@@H](C)C4)nc3c2C(C)C)cn2ncnc2c1C [Example 867]

>  <Tested On>
human TLR8 (Homo sapiens (Human))

>  <pIC50>
7.96

$$$$
>  <Compound>
Cc1c(-c2[nH]c3ccc(N4CCN(C(=O)CN(C)C(C)(C)C)CC4)nc3c2C(C)C)cn2ncnc2c1C [Example 878]

>  <Tested On>
human TLR8 (Homo sapiens (Human))

>  <pIC50>
8.66

$$$$
>  <Compound>
Cc1c(-c2[nH]c3ccc(C4CCC(N5CCC6(COC6)C5)CC4)nc3c2C(C)C)cn2ncnc2c1C (centres unmarked) [Example 1060]

>  <Tested On>
human TLR8 (Homo sapiens (Human))

>  <pIC50>
9.30

$$$$

P: CNC(=O)CN1CCN(c2ccc3[nH]c(-c4cn5ncnc5c(C)c4C)c(C(C)C)c3n2)[C@@H](C)C1 [Example 812]
Q: Cc1c(-c2[nH]c3ccc(N4CC5(CN(CCC#N)C5)C4)nc3c2C(C)C)cn2ncnc2c1C [Example 1014]
Name the one with the greater pIC50 value, either P or Q as given. Please indicate the selected item by its label.
P

a: Cc1c(-c2[nH]c3ccc(N4C[C@@H](C)N(C(=O)CCN5CC6(C5)CS(=O)(=O)C6)C[C@@H]4C)nc3c2C(C)C)cn2ncnc2c1C [Example 959]
b: Cc1c(-c2[nH]c3ccc(N4C[C@H](C)N(C(=O)CN5CCCC5)C[C@H]4C)nc3c2C(C)C)cn2ncnc2c1C [Example 936]
I need your help: which of the pair a , b has higher pIC50? Lab note: record the label of whichever item you select.
a
(a: 9.54, b: 8.46)

* * *

# Tested On: human TLR8 (Homo sapiens (Human), UniProt Q9NR97)
# Sequence (Q9NR97 27-1041): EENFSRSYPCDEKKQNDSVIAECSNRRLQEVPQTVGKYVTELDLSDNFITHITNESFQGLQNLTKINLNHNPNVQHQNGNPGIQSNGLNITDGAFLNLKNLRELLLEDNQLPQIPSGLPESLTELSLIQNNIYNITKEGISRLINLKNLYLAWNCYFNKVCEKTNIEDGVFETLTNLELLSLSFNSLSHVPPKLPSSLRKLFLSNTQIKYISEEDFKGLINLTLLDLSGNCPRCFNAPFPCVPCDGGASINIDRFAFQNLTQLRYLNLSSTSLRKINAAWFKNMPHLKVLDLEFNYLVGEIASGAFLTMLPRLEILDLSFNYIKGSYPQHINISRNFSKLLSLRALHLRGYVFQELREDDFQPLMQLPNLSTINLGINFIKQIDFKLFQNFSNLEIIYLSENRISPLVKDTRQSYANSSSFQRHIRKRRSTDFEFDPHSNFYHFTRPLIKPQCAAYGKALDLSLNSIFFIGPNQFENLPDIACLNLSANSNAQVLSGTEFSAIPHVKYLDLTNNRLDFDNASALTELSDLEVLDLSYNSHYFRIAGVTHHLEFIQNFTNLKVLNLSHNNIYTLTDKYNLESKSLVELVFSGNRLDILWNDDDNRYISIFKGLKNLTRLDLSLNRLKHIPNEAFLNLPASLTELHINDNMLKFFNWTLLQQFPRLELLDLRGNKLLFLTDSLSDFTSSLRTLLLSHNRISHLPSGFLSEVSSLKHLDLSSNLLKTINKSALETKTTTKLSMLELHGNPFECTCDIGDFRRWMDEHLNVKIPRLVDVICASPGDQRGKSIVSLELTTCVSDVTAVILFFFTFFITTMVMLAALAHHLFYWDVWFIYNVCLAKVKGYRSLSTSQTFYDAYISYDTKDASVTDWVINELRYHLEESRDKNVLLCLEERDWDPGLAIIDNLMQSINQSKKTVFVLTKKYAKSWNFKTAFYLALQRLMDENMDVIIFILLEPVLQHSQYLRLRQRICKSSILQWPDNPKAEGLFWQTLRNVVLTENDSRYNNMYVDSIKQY
# Assay: TLR8 inhibition reporter assay (HEK-Blue SEAP)
# Assay Conditions: read-out: TLR8 IC50; HEK-Blue cells overexpressing human TLR8, SEAP reporter, R848 15.9 μM
Test Readout: IC50 (nM)

>  <Compound>
COc1cc(-c2[nH]c3ccc(C4CCC(NC5CCOCC5)C4)nc3c2C(C)C)cn2ncnc12 (stereo not drawn) [Example 721]

>  <Test Readout>
IC50

>  <Unit Of Measure>
nM

>  <Assay Value>
0.53

$$$$
>  <Compound>
COc1cc(-c2[nH]c3ccc(C4CCC(NC5CCOC(C)(C)C5)C4)nc3c2C(C)C)cn2ncnc12 (stereo not drawn)

>  <Test Readout>
IC50

>  <Unit Of Measure>
nM

>  <Assay Value>
1.3

$$$$
>  <Compound>
Cc1c(-c2[nH]c3ccc(C4CCC(N(CC#N)CC(=O)N(C)C)CC4)nc3c2C(C)C)cn2ncnc2c1C (stereo not drawn) [Example 456]

>  <Test Readout>
IC50

>  <Unit Of Measure>
nM

>  <Assay Value>
8.1

$$$$
>  <Compound>
COc1cc(-c2[nH]c3ccc(C4CCC(N(CC(N)=O)CC(N)=O)C4)nc3c2C(C)C)cn2ncnc12 (stereo not drawn) [Example 708]

>  <Test Readout>
IC50

>  <Unit Of Measure>
nM

>  <Assay Value>
280

$$$$
>  <Compound>
COc1cc(-c2[nH]c3ccc(C4CN(C(C)C)CCO4)nc3c2C(C)C)cn2ncnc12 (stereo not drawn)

>  <Test Readout>
IC50

>  <Unit Of Measure>
nM

>  <Assay Value>
15

$$$$

A: Cc1c(-c2[nH]c3ccc(C4CCC(N(C)CC(N)=O)CC4)nc3c2C(C)C)cn2ncnc2c1C (stereo not drawn) [Example 398]
B: Cc1c(-c2[nH]c3ccc(N4C[C@H](C)N[C@@H](C)C4)nc3c2C(C)C)cn2ncnc2c1C
C: COc1cc(-c2[nH]c3cc(F)c(C4CCNCC4)nc3c2C(C)C)cn2ncnc12
Order the items by recorded IC50; the first position goes to the largest value. Kindly provide the labels arranged according to the requested ordering.
A, C, B

A: Cc1c(-c2[nH]c3ccc(C4CCN(CC(=O)N(C)C)CC4)nc3c2C(C)C)cn2ncnc2c1C
B: Cc1cc(-c2[nH]c3ccc(C4CCN(CCS(C)(=O)=O)CC4)nc3c2C(C)C)cn2ncnc12
Param pair: A , B . Output: the one whose IC50 is numerically greater. Returns: label corresponding to the selected item.
B
(B: 2.1 nM, A: 1.4 nM)

1: COc1cc(-c2[nH]c3ccc(C4CN(C(=O)CN(C)C)CCO4)nc3c2C(C)C)cn2ncnc12 (stereo not drawn)
2: Cc1c(-c2[nH]c3cc(F)c(C4CCC(N)CC4)nc3c2C(C)C)cn2ncnc2c1C (stereo not drawn) [Example 506]
3: COc1cc(-c2[nH]c3ccc(C4CCN(C5CCN(C)C5=O)CC4)nc3c2C(C)C)cn2ncnc12 (stereo not drawn)
4: Cc1c(-c2[nH]c3ccc(N4C[C@H](C)N(C(=O)CCN(C)C)C[C@@H]4C)nc3c2C(C)C)cn2ncnc2c1C
5: COc1cc(-c2[nH]c3ccc(C4CCN(CCS(C)(=O)=O)CC4)nc3c2C(C)C)cn2ncnc12
Sort by IC50, descending. I would appreciate it if you listed the labels in the requested order.
1, 4, 5, 3, 2
(1: 22 nM, 4: 3.7 nM, 5: 2.5 nM, 3: 1.1 nM, 2: 0.42 nM)

* * *

# Tested On: human TLR8 (Homo sapiens (Human), UniProt Q9NR97)
# Assay: TLR8 inhibition reporter assay (HEK-Blue SEAP);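 note: SEAP driven by IFN-β minimal promoter carrying NF-κB and AP-1 sites, compounds dosed 0.05 nM to 50 µM for 22 h, inhibition scaled between agonist-plus-DMSO and reference-inhibitor wells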
# Assay Conditions: read-out: TLR8 IC50; HEK-Blue human TLR8 cells, R848 15.9 μM
pIC50: −log10 of the molar value.
Test Readout: pIC50

>  <Compound>
Cc1c(-c2[nH]c3ccc(N4CCN(C(=O)CN5CCC(C)(O)C5)CC4)nc3c2C(C)C)cn2ncnc2c1C (centres unmarked) [Example 948]

>  <Tested On>
human TLR8 (Homo sapiens (Human), UniProt Q9NR97)

>  <Assay Value>
8.85

$$$$
>  <Compound>
Cc1c(-c2[nH]c3ccc(N4CCN(CCC(N)=O)C[C@H]4C)nc3c2C(C)C)cn2ncnc2c1C [Example 807]

>  <Tested On>
human TLR8 (Homo sapiens (Human), UniProt Q9NR97)

>  <Assay Value>
8.89

$$$$
>  <Compound>
Cc1c(-c2[nH]c3ccc(N4C[C@H](C)NC[C@@H]4C)nc3c2C(C)C)cn2ncnc2c1C [Example 991]

>  <Tested On>
human TLR8 (Homo sapiens (Human), UniProt Q9NR97)

>  <Assay Value>
9.49

$$$$

I: Cc1c(-c2[nH]c3ccc(N4C[C@H](C)N(CCCS(C)(=O)=O)C[C@H]4C)nc3c2C(C)C)cn2ncnc2c1C [Example 845]
II: Cc1c(-c2[nH]c3ccc(C4CCC(N5CC(C)(O)C5)CC4)nc3c2C(C)C)cn2ncnc2c1C (centres unmarked) [Example 1041]
III: Cc1c(-c2[nH]c3ccc(N4CCN[C@@H](C(C)C)C4)nc3c2C(C)C)cn2ncnc2c1C [Example 983]
List by increasing pIC50. Labels, ranked as asked.
I, II, III

A: Cc1c(-c2[nH]c3ccc(N4CCN(C(=O)CN5CCCC5)[C@H](C)C4)nc3c2C(C)C)cn2ncnc2c1C [Example 941]
B: Cc1c(-c2[nH]c3ccc(N4C[C@@H](C)N(C(=O)CCN5CC6(CCO6)C5)C[C@@H]4C)nc3c2C(C)C)cn2ncnc2c1C [Example 958]
Please choose the item with the lower pIC50 value from this pair: A and B Returns: label corresponding to the selected item.
B

A: Cc1c(-c2[nH]c3ccc(N4C[C@H]5CC[C@@H]4CN5)nc3c2C(C)C)cn2ncnc2c1C [Example 980]
B: Cc1c(-c2[nH]c3ccc(N4C[C@H](C)N(C(C)C)C[C@H]4C)nc3c2C(C)C)cn2ncnc2c1C [Example 841]
Lab log: flag the item ( A or B ) with the smaller pIC50 figure. Field: selected label. Fill in the label of the entry you choose.
B
(B: 7.55, A: 8.64)

1: Cc1c(-c2[nH]c3ccc(C4CCC(N5CC6(CCO6)C5)CC4)nc3c2C(C)C)cn2ncnc2c1C (centres unmarked) [Example 1057]
2: COc1cc(-c2[nH]c3ccc(C4CCC(N5CC6(CCO6)C5)CC4)nc3c2C(C)C)cn2ncnc12 (centres unmarked) [Example 1075]
3: Cc1c(-c2[nH]c3ccc(C4CCC(N5CC(C)(C)C5)CC4)nc3c2C(C)C)cn2ncnc2c1C (centres unmarked) [Example 1040]
4: COCCNC1CN(c2ccc3[nH]c(-c4cn5ncnc5c(C)c4C)c(C(C)C)c3n2)C1 [Example 1000]
Order the records by pIC50, with each subsequent value no larger than the one before. The reply should contain the labels ordered as requested.
3, 1, 4, 2
(3: 9.18, 1: 8.77, 4: 8.49, 2: 7.96)
